- experimental_details: Plasma clearance in rat
- Format: ADME, organism-based
property: clearance (mL/min/kg)
The figure you give is taken to be in mL/min/kg; do not add the unit.

Request the reported clearance associated with CCNC(=O)O[C@]1(C(=O)CO)[C@@H](C)C[C@H]2[C@@H]3CCC4=CC(=O)C=C[C@]4(C)[C@@]3(F)[C@@H](O)C[C@@]21C
26

* * *

- subject_of_test: UniProtKB P06401
- Sequence (P06401 whole entry): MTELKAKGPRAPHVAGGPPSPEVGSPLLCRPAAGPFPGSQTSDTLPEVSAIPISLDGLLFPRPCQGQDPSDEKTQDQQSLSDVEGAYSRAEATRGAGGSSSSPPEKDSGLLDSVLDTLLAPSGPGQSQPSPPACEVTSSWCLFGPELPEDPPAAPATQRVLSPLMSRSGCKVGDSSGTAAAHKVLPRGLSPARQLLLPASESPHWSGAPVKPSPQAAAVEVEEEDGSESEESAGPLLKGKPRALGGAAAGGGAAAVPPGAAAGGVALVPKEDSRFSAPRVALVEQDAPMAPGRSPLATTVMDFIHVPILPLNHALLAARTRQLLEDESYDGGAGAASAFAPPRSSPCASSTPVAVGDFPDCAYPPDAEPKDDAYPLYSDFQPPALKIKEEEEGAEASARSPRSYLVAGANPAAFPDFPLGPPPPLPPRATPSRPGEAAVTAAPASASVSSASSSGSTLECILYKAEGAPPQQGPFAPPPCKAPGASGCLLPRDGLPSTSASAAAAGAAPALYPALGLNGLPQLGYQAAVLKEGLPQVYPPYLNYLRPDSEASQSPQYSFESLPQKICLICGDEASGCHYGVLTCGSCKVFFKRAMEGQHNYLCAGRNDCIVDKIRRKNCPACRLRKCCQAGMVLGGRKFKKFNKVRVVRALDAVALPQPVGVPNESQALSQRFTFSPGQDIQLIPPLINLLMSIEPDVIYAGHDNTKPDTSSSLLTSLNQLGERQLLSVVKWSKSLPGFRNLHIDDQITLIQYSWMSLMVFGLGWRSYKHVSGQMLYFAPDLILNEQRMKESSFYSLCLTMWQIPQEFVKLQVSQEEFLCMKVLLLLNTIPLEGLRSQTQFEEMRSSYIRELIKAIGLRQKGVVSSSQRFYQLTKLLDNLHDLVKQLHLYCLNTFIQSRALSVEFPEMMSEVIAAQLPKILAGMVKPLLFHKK
For each of the molecules below, state its IC50.
The figure you give is taken to be in nM; do not add the unit.

Request the reported IC50 associated with C[C@H](NC(=O)O[C@]1(C(=O)CO)[C@@H](C)C[C@H]2[C@@H]3CCC4=CC(=O)C=C[C@]4(C)[C@@]3(F)[C@@H](O)C[C@@]21C)c1ccccc1
176

Request the reported IC50 associated with C[C@H]1C[C@H]2[C@@H]3CCC4=CC(=O)C=C[C@]4(C)[C@@]3(F)[C@@H](O)C[C@]2(C)[C@@]1(OC(=O)NC1CCCCC1)C(=O)CO
120

Request the reported IC50 associated with CCCNC(=O)O[C@]1(C(=O)CO)[C@@H](C)C[C@H]2[C@@H]3CCC4=CC(=O)C=C[C@]4(C)[C@@]3(F)[C@@H](O)C[C@@]21C
394

* * *

- subject_of_test: UniProt P03956
- Sequence (P03956 whole entry): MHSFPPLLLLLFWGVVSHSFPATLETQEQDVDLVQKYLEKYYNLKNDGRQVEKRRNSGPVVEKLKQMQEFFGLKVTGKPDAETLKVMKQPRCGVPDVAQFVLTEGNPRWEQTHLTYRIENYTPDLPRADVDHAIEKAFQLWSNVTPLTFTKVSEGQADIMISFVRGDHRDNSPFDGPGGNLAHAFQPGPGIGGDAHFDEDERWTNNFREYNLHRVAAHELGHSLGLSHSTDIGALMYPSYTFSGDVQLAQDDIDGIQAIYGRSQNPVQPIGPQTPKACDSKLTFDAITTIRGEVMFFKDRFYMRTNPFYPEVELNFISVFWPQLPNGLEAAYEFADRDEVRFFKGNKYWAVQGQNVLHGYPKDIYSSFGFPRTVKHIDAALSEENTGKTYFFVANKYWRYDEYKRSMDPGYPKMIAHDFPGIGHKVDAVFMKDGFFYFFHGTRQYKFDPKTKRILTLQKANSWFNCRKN
- experimental_details: Inhibition of glucocorticoid-mediated human MMP1 expression in PMA stimulated A549 cells assessed as MMP1 protein level by ELISA relative to Dexamethasone
- Type: cell-based
- Design: scale not given: the % may be the effect or the level left
API: label(entry) gives fulfilled if the entry's Activity is strictly smaller than 90%; on equality or larger values it gives not fulfilled.

Does the reported Activity of the following molecule sit strictly below 90%? C[C@H]1C[C@H]2[C@@H]3CCC4=CC(=O)C=C[C@]4(C)[C@@]3(F)[C@@H](O)C[C@]2(C)[C@@]1(OC(=O)NC12CC3CC(CC(C3)C1)C2)C(=O)CO
fulfilled

Does the reported Activity of the following molecule sit strictly below 90%? C[C@H]1C[C@H]2[C@@H]3CCC4=CC(=O)C=C[C@]4(C)[C@@]3(F)[C@@H](O)C[C@]2(C)[C@@]1(OC(=O)NCCC(C)(C)C)C(=O)CO
fulfilled

Does the reported Activity of the following molecule sit strictly below 90%? C[C@H]1C[C@H]2[C@@H]3CCC4=CC(=O)C=C[C@]4(C)[C@@]3(F)[C@@H](O)C[C@]2(C)[C@@]1(OC(=O)NC(C)(C)CC(C)(C)C)C(=O)CO
fulfilled

Does the reported Activity of the following molecule sit strictly below 90%? CCCCCNC(=O)O[C@]1(C(=O)CO)[C@@H](C)C[C@H]2[C@@H]3CCC4=CC(=O)C=C[C@]4(C)[C@@]3(F)[C@@H](O)C[C@@]21C
not fulfilled

Does the reported Activity of the following molecule sit strictly below 90%? CCNC(=O)O[C@]1(C(=O)CO)[C@@H](C)C[C@H]2[C@@H]3CCC4=CC(=O)C=C[C@]4(C)[C@@]3(F)[C@@H](O)C[C@@]21C
not fulfilled

Does the reported Activity of the following molecule sit strictly below 90%? C[C@H]1C[C@H]2[C@@H]3CCC4=CC(=O)C=C[C@]4(C)[C@@]3(F)[C@@H](O)C[C@]2(C)[C@@]1(OC(=O)NC(C)(C)C)C(=O)CO
not fulfilled

Does the reported Activity of the following molecule sit strictly below 90%? C[C@H]1C[C@H]2[C@@H]3CCC4=CC(=O)C=C[C@]4(C)[C@@]3(F)[C@@H](O)C[C@]2(C)[C@@]1(OC(=O)NC1CCCCC1)C(=O)CO
fulfilled

Does the reported Activity of the following molecule sit strictly below 90%? C[C@H](NC(=O)O[C@]1(C(=O)CO)[C@@H](C)C[C@H]2[C@@H]3CCC4=CC(=O)C=C[C@]4(C)[C@@]3(F)[C@@H](O)C[C@@]21C)c1ccccc1
not fulfilled

Does the reported Activity of the following molecule sit strictly below 90%? COC(=O)[C@H](C)NC(=O)O[C@]1(C(=O)CO)[C@@H](C)C[C@H]2[C@@H]3CCC4=CC(=O)C=C[C@]4(C)[C@@]3(F)[C@@H](O)C[C@@]21C
not fulfilled

Does the reported Activity of the following molecule sit strictly below 90%? CCCCNC(=O)O[C@]1(C(=O)CO)[C@@H](C)C[C@H]2[C@@H]3CCC4=CC(=O)C=C[C@]4(C)[C@@]3(F)[C@@H](O)C[C@@]21C
not fulfilled

Does the reported Activity of the following molecule sit strictly below 90%? C=CCNC(=O)O[C@]1(C(=O)CO)[C@@H](C)C[C@H]2[C@@H]3CCC4=CC(=O)C=C[C@]4(C)[C@@]3(F)[C@@H](O)C[C@@]21C
not fulfilled

Does the reported Activity of the following molecule sit strictly below 90%? C[C@H]1C[C@H]2[C@@H]3CCC4=CC(=O)C=C[C@]4(C)[C@@]3(F)[C@@H](O)C[C@]2(C)[C@@]1(OC(=O)NCC(C)(C)C)C(=O)CO
fulfilled

Does the reported Activity of the following molecule sit strictly below 90%? CCC(C)NC(=O)O[C@]1(C(=O)CO)[C@@H](C)C[C@H]2[C@@H]3CCC4=CC(=O)C=C[C@]4(C)[C@@]3(F)[C@@H](O)C[C@@]21C (stereo partly drawn)
not fulfilled

Does the reported Activity of the following molecule sit strictly below 90%? CCCNC(=O)O[C@]1(C(=O)CO)[C@@H](C)C[C@H]2[C@@H]3CCC4=CC(=O)C=C[C@]4(C)[C@@]3(F)[C@@H](O)C[C@@]21C
not fulfilled

Does the reported Activity of the following molecule sit strictly below 90%? CC(C)NC(=O)O[C@]1(C(=O)CO)[C@@H](C)C[C@H]2[C@@H]3CCC4=CC(=O)C=C[C@]4(C)[C@@]3(F)[C@@H](O)C[C@@]21C
not fulfilled

Does the reported Activity of the following molecule sit strictly below 90%? CCC(C)(C)NC(=O)O[C@]1(C(=O)CO)[C@@H](C)C[C@H]2[C@@H]3CCC4=CC(=O)C=C[C@]4(C)[C@@]3(F)[C@@H](O)C[C@@]21C
fulfilled

Does the reported Activity of the following molecule sit strictly below 90%? C[C@H]1C[C@H]2[C@@H]3CCC4=CC(=O)C=C[C@]4(C)[C@@]3(F)[C@@H](O)C[C@]2(C)[C@@]1(OC(=O)NC1CCCC1)C(=O)CO
fulfilled

* * *

- experimental_details: Oral bioavailability in rat
- Assay type: ADME, organism-based
- stated_conditions: in vivo
property: bioavailability
Please answer using the number first and the unit second.

Request the reported bioavailability associated with CCNC(=O)O[C@]1(C(=O)CO)[C@@H](C)C[C@H]2[C@@H]3CCC4=CC(=O)C=C[C@]4(C)[C@@]3(F)[C@@H](O)C[C@@]21C
43%

* * *

- experimental_details: Volume of distribution at steady state in rat
- Type: ADME, organism-based
- stated_conditions: in vivo, read-out: Vdss
property: Vd (L/kg)
The figure you give is taken to be in L/kg; do not add the unit.

Request the reported Vd associated with CCNC(=O)O[C@]1(C(=O)CO)[C@@H](C)C[C@H]2[C@@H]3CCC4=CC(=O)C=C[C@]4(C)[C@@]3(F)[C@@H](O)C[C@@]21C
3.22

* * *

- subject_of_test: Glucocorticoid receptor (Homo sapiens)
- Sequence (P04150 whole entry): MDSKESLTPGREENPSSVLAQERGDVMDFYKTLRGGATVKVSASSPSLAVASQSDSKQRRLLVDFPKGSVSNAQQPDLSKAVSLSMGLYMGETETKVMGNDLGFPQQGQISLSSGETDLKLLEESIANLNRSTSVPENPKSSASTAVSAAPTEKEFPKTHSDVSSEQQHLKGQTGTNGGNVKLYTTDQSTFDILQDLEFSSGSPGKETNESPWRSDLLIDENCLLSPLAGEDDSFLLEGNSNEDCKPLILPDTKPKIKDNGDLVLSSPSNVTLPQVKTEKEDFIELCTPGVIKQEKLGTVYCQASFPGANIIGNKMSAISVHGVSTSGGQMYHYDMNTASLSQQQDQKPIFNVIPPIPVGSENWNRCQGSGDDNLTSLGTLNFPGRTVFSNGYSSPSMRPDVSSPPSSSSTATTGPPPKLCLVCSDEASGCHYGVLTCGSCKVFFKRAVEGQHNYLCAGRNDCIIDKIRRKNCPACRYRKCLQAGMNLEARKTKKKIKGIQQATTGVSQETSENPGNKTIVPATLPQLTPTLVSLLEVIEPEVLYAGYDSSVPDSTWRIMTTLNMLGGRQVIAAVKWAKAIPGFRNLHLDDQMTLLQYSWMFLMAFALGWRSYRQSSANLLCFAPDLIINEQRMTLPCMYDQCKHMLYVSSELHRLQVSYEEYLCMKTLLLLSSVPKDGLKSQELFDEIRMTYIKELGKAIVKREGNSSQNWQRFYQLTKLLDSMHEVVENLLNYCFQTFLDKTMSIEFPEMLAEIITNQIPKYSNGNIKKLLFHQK
For each of the molecules below, state its pIC50.
pIC50 here is simply -log10 of the concentration when that concentration is written in mol/L.

Request the reported pIC50 associated with CCNC(=O)O[C@]1(C(=O)CO)[C@@H](C)C[C@H]2[C@@H]3CCC4=CC(=O)C=C[C@]4(C)[C@@]3(F)[C@@H](O)C[C@@]21C
8.29

Request the reported pIC50 associated with CCC(C)(C)NC(=O)O[C@]1(C(=O)CO)[C@@H](C)C[C@H]2[C@@H]3CCC4=CC(=O)C=C[C@]4(C)[C@@]3(F)[C@@H](O)C[C@@]21C
7.26

Request the reported pIC50 associated with CCC(C)NC(=O)O[C@]1(C(=O)CO)[C@@H](C)C[C@H]2[C@@H]3CCC4=CC(=O)C=C[C@]4(C)[C@@]3(F)[C@@H](O)C[C@@]21C (stereo partly drawn)
9.30
